Sourced from patent US20250281621A1

molecular target: GPC3 (Homo sapiens); assay: GPC3 binding via flow cytometry using GPC3+ HEK293 cells; parameters: expressed in transfected cells; host or cells: engineered HEK293 cells overexpressing GPC3; details: flow cytometry using GPC3+ HEK293 cells
Sequence (P51654 25-554): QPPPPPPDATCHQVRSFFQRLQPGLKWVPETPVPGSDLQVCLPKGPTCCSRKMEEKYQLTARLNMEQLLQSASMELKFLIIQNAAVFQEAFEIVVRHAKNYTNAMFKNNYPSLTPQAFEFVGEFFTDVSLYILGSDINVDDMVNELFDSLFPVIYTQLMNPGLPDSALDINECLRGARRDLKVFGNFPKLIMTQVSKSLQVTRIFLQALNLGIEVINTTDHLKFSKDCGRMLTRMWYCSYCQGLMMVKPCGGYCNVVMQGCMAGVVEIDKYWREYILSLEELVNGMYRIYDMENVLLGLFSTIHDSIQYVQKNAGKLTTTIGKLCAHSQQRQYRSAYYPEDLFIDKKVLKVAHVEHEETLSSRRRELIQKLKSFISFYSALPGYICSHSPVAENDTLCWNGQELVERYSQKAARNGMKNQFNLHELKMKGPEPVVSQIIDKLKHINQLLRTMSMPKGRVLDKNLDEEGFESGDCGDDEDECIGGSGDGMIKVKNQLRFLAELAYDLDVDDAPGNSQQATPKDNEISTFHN
# note: boundary value 0.03 µM maps to Not met; Kd below it maps to Met

Field: example entries. Status: answers known.
CGUCAUCGGGUUGCUACCCAAGGCCAGGAGGCGAUGACG (listed as RNA, chemistry not fully specified) [GRX49, 25] | Met
CGUCAUCGGGUUGCUACCCAAGGCCCAGGAGGGCGAUGACG (listed as RNA, chemistry not given here) [GRX1187, 77] | Not met
GACUAGAUCGGGUUGCUACCCAAGCUCCGGUUCAGAUCGAUGGAGGAUCUAGUC (listed as RNA, chemistry not fully specified) [GRX958, 76] | Not met

Moving on to another sequence below.
query: Criterion: Kd strictly below 0.03 µM. Is it met by CGGGAGUCCUAGGAAGGACGGGUUGCUACCCAAGUCCCG (listed as RNA, chemistry not fully specified) [GRX2102, 79] ?
result: Met

----------
test system: GPC3^− HEK293 cells; assay: Flow cytometry binding control with GPC3− HEK293 cells
Label Met when GPC3 binding activity (MFI) >= 600; otherwise Not met.

query: Is reported GPC3 binding activity (MFI) greater than or equal to 600 here: AAGCCATTACCGGGTTGCTACCCGAGGACAAGAGTCGATGATGCTT (listed as DNA, chemistry not fully specified) [Min3, 28]
result: Not met

query: Now consider CATTATCGGGTTGCTACCCAAGGACAAGAGTCGATGATG (listed as DNA, chemistry not fully specified) [Min5, 30] .
result: Met

query: Now consider CATTATCGGGTTGCTACCCGAGGACAAGAGTCGATGATG (listed as DNA, chemistry not fully specified) [Min6, 31] .
result: Not met

query: Now consider AAGCATTACCGGGTTGCTACCCAAGGACAAGAGTCGATGATGCTT (listed as DNA, chemistry not fully specified) [Min2, 27] .
result: Met

query: Now consider AAGCCATTATCGGGTTGCTACCCAAGGACAAGAGTCGATGATGCTT (listed as DNA, chemistry not fully specified) [Min4, 29] .
result: Met

query: Now consider AAGCCATTACCGGGTTGCTACCCAAGGACAAGAGTCGATGATGCTT (listed as DNA, chemistry not fully specified) [Min1, 26] .
result: Not met

----------
Target: GPC3 (Homo sapiens)
Assay: Binding kinetics of top minimers (Ka, Kd, KD)
Description: The best minimer, GRX46, as well as combinations of variants with top activities were selected for further evaluation (Table 6).
# note: boundary value 100000 M⁻¹ s⁻¹ maps to 0.0; Ka below it maps to 1.0

CGUCAUCGGGUUGCUACCCAAGGUCAAGAGACGAUGACG (listed as RNA, chemistry not fully specified) [GRX46] | 1.0
CGUCAUCGGGUUGCUACCCAAGGUCAGGAGACGAUGACG (listed as RNA, chemistry not given here) [GRX8 with triple] | 0.0
CGUCAUCGGGUUGCUACCCAAGGUCAGGUGACGAUGACG (listed as RNA, chemistry not given here) [GRX8 with QUAD6] | 0.0
CGUCAUCGGGUUGCUACCCAAGGACAAGAGUCGAUGACG (RNA aptamer, any chemical modification not given here, further chemistry not given here) [GRX8] | 1.0

query: Criterion: Ka strictly below 100000 M⁻¹ s⁻¹. Is it met by CGUCAUCGGGUUGCUACCCAAGGCCAGGAGGCGAUGACG (listed as RNA, chemistry not fully specified) [GRX49, 25] ?
result: 0.0
